- MEASURED_ON: purified recombinant human Tdp1 (Homo sapiens, UniProt Q9NUW8)
- Sequence (Q9NUW8 whole entry): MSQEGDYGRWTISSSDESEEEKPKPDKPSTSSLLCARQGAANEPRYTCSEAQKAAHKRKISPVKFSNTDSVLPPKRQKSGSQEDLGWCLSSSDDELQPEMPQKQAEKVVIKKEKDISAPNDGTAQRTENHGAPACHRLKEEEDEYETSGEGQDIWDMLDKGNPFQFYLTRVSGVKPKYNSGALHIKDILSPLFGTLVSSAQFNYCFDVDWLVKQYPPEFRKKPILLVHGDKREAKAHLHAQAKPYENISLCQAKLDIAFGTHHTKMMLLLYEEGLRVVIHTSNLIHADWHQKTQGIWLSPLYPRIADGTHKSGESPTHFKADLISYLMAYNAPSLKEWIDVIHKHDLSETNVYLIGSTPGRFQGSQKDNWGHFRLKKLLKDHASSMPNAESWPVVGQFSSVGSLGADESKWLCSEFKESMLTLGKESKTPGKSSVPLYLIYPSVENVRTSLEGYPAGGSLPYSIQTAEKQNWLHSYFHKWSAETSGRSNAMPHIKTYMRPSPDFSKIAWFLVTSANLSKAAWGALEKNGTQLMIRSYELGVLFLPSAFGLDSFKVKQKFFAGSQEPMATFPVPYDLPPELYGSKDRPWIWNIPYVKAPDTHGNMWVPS
- ASSAY: Real-time detection of Tdp1 activity (removal of BHQ1 from a 5′-FAM 16-nt oligonucleotide, fluorescence)
- RECORDED_CONDITIONS: 1.5 nM Tdp1, 50 nM oligonucleotide, 25 °C, three independent experiments
MEASUREMENT_LABEL: log10 IC50 (log10 of the value in µM)
Log10 applied to IC50; unit prior to transform: µM.

Look over these answered cases.
SMILES_STRUCTURE	MEASURED_ON	log10 IC50
O=C(OC[C@H]1O[C@@H](n2cnc3c(Cl)nc(F)nc32)[C@H](OC(=O)c2ccccc2)[C@@H]1OC(=O)c1ccccc1)c1ccccc1	purified recombinant human Tdp1 (Homo sapiens, UniProt Q9NUW8)	0.00
O=C(OC[C@H]1O[C@@H](n2cnc3c(Cl)ncnc32)[C@H](OC(=O)c2ccccc2)[C@@H]1OC(=O)c1ccccc1)c1ccccc1	purified recombinant human Tdp1 (Homo sapiens, UniProt Q9NUW8)	0.30
O=C(OC[C@H]1O[C@@H](n2cnc3c(Cl)nc(Cl)nc32)[C@H](OC(=O)c2ccccc2)[C@@H]1OC(=O)c1ccccc1)c1ccccc1	purified recombinant human Tdp1 (Homo sapiens, UniProt Q9NUW8)	-0.09
OC[C@H]1O[C@@H](n2cnc3c(NCc4c5ccccc5cc5ccccc45)ncnc32)[C@H](O)[C@@H]1O	purified recombinant human Tdp1 (Homo sapiens, UniProt Q9NUW8)	1.34

Output reported log10 IC50 of the compound O[C@@H]1[C@H](O)[C@@H](COC(c2ccccc2)(c2ccccc2)c2ccccc2)O[C@H]1n1cnc2c(NC(c3ccccc3)(c3ccccc3)c3ccccc3)ncnc21 on purified recombinant human Tdp1 (Homo sapiens, UniProt Q9NUW8).
-0.52

Output reported log10 IC50 of the compound O=C(OC[C@H]1O[C@@H](n2cnc3c(O)ncnc32)[C@H](OC(=O)c2ccccc2)[C@@H]1OC(=O)c1ccccc1)c1ccccc1 on purified recombinant human Tdp1 (Homo sapiens, UniProt Q9NUW8).
0.85
